Numbers sourced from a collection of fitness landscapes (doi:10.1126/science.1257360).

Answer each item with its documented enrichment ratio.
B1: PhoQ; a variant is named by its letters at X, in order, P23837 (parent)
chain: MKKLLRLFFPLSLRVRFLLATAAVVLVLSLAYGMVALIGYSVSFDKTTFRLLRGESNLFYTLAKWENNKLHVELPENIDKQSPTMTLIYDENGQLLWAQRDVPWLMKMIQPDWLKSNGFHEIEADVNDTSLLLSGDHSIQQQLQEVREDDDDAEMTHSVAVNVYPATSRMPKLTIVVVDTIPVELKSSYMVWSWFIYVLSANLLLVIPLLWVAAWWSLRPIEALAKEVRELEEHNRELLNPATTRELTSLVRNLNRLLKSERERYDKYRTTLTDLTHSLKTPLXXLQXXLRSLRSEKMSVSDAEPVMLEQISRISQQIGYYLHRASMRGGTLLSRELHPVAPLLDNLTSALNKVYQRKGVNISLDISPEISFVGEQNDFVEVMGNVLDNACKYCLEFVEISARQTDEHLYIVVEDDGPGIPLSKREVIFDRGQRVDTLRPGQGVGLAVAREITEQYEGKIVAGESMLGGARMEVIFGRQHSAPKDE

- Variants of: B1
- Protocol details: enrichment ratio after two sorts for PhoP signalling (ratio (wild type AVST 3.29)); higher = more functional
- Test conditions: with PhoP (E. coli)
In all, about 140,000 sequences were measured (“enrichment ratio after two sorts for PhoP signalling”: median about 0, highest 2% from about 11 on). For the sample, the highest values were picked, then their nearest neighbours and some sequences at random.

Hey, can you go through the list below and give me enrichment ratio for every item?
1. GCSG
2. TGHL
3. SESR
4. FPRY
5. LLTM
6. RDTF
7. IEAL
8. PLMP

1: 6.35; 2: 7.55; 3: 4.3; 4: ≤ 0.25; 5: ≤ 0.25; 6: ≤ 0.25; 7: ≤ 0.25; 8: ≤ 0.25

Go through the items and report each one's enrichment ratio.
1. AIAR
2. HITM
3. EMQY
4. SICK
5. SNGH
6. DGIV
7. MGDR

19.7
≤ 0.25
≤ 0.25
14.6
23.3
≤ 0.25
≤ 0.25

Look at each variant and report its enrichment ratio.
1. FCRN
2. GLTC
3. YGNI
4. STGH

≤ 0.25
≤ 0.25
≤ 0.25
17.1

Go through the list and state enrichment ratio for each entry.
1. GGSV
2. FQCV
3. ADVT
4. IGGQ
5. YGPL
6. YFRG
7. GTWL

1: 23.9; 2: ≤ 0.25; 3: ≤ 0.25; 4: ≤ 0.25; 5: ≤ 0.25; 6: ≤ 0.25; 7: ≤ 0.25
